FYI, the data here is from patent US20100240069A1.

target.or.test.system: rhesus HPH3 (Macaca mulatta, UniProt H9FPE4)
Construct: fused on or other part: GST tag, N- or C-terminal, for purification
experimental.protocol: TR-FRET HPH enzyme assay (VBC recognition of hydroxylated peptide), HPH3
Type: biochemical, rhesus monkey (Macaca mulatta)
condition.summary: recombinant rhesus HPH3, inhibitory activity
measured.metric: IC50 (µM)

{"molecule": "O=C(O)CCC(=O)O [Succinate]", "measured.metric": "IC50", "reported": 80}

###

target.or.test.system: rhesus HPH1 (Macaca mulatta, UniProt H9FPE3, INS27EP)
Sequence (H9FPE3 1-405, stated change not applied): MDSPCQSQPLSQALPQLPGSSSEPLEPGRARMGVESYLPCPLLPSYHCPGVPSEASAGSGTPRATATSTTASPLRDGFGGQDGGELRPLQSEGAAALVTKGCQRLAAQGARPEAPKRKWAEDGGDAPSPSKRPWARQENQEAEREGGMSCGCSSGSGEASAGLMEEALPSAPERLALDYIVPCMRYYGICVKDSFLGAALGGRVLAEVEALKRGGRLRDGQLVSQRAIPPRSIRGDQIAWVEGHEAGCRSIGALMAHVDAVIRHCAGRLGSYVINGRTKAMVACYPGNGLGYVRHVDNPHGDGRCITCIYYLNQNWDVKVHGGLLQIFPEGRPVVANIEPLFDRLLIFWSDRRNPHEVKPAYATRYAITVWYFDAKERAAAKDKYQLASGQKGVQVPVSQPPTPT
experimental.protocol: biochemical
pIC50: −log10 of the molar value.

{"compound": "NNc1nncc2ccccc12 [Hydralazine]", "target.or.test.system": "rhesus HPH1 (Macaca mulatta, UniProt H9FPE3, INS27EP)", "pIC50": 3.40}
